test system: HCC 2998; test: NCI tumour cell line growth inhibition, 48 h
Activity calls are given as the source filed them. No stated cut-off is given here; in the data, active = GI50 up to about 1.1 µM and inactive = higher.
Possible outcomes: active, inactive

# molecule, category_label
rows = [
    ("O=C(CCCCCCCCCCc1ccccc1)C1=C(O)CCCC1=O", "inactive"),
    ("O=C(O)C[S+]([O-])c1ccc2c3c(cccc13)C(=O)c1ccccc1-2 (stereo unspecified)", "inactive"),
    ("CCCCCCCCCCCC1NC(N)=NC(CCCO)=C1C(=O)OC (stereo unspecified)", "inactive"),
    ("CC1CC(Br)C(=O)O1 (stereo unspecified)", "inactive"),
    ("Cc1nc2c(=O)[nH]c3ccc(Cl)cc3c2o1", "inactive"),
    ("Cn1nc(/C=C\\C(=O)N2CC(CCl)c3c2cc(N)c2ccccc32)cc1/C=C/C(=O)N1CC(CCl)c2c1cc(N)c1ccccc21 (stereo unspecified)", "active"),
    ("CCCSc1ccc2[nH]c(N3C(=O)/C(=C/c4ccco4)N=C3c3ccccc3)cc2c1", "inactive"),
    ("O=C(CC1Sc2ccccc2NC1=O)Nc1cccc(Cl)c1 (stereo unspecified)", "inactive"),
    ("CCOC(=O)NC(=O)c1cn(CCOC(=O)NCCCCCCNC(=O)OCCn2cc(C(=O)NC(=O)OCC)c(=O)[nH]c2=O)c(=O)[nH]c1=O", "inactive"),
    ("[N-]=[N+]=Nc1c([N+](=O)[O-])c(=O)n(-c2ccccc2)c2ccccc12", "inactive"),
    ("CCN(CC)c1ccc(Cl)c2c1C(O)(C(C)C)C2(C)C (stereo unspecified)", "inactive"),
]

* * *

test system: OVCAR-8; test: NCI tumour cell line growth inhibition, 48 h
Activity calls are given as the source filed them. Cut-off read from the data, not from the text of the source: active = GI50 up to about 1.1 µM and inactive = higher.
Quick list: GI50 per entry.

# compound, GI50
data = [
    ("N#Cc1nc(-c2cnccn2)oc1N", "> 100 µM (inactive)"),
    ("C=C(Br)C/N=C/N(C)C", "> 100 µM (inactive)"),
    ("C1CCC(OC2CSC2)OC1 (stereo unspecified)", "> 100 µM (inactive)"),
    ("O=C(CC(=O)N1N=C(c2ccccc2)C(/N=N/c2ccc(C(=O)O)cc2)C1=O)Nc1ccc(F)cc1 (stereo unspecified)", "40.8 µM (inactive)"),
    ("CC(C)CC(NC=O)C(=O)NC(Cc1ccccc1)NC(=O)CNC(=O)C(C)NC(=O)OC(C)(C)C (stereo unspecified)", "> 100 µM (inactive)"),
    ("CC1=C(O)C(=O)C2C(=O)C1C(C)C2c1ccc(Cl)cc1 (stereo unspecified)", "> 100 µM (inactive)"),
]

* * *

Quick list: GI50 per entry.
system: UO-31; experiment: NCI tumour cell line growth inhibition, 48 h
Active and inactive are the calls of the source. Cut-off read from the data, not from the text of the source: active = GI50 up to about 1.1 µM and inactive = higher. Where a SMILES comes first, the peptide text is derived from it. [ ]: non-standard residue; d: D form. The star is where a group is joined. Octanoyl = CCCCCCCC(=O)*; Aib = CC(C)(N)C(=O)O; tBu = CC(C)(C)*

# compound, GI50
data = [
    ("CCOC(=O)Nc1nn(C)/c(=N/Cc2ccccc2)s1", "33.4 µM (inactive)"),
    ("CN(C)C(=S)C(Cl)(c1ccccc1)c1ccccc1", "84.9 µM (inactive)"),
    ("O=C(O)/C=C\\C(=O)Nc1ccc2c(c1)-c1ccccc1C2", "> 100 µM (inactive)"),
    ("CC(C)=NNc1ncnc2[nH]cnc12", "3.21 µM (inactive)"),
    ("CCCCc1ccc(-n2sc3ncc([N+](=O)[O-])cc3c2=O)cc1", "12.5 µM (inactive)"),
    ("COc1cccc2c1C1(O)C2CCCC12OCCCO2 (stereo unspecified)", "> 100 µM (inactive)"),
    ("CC1=CC(=O)/C(=C/n2c(=S)[nH]c3ccc([N+](=O)[O-])cc32)C(=O)O1", "> 100 µM (inactive)"),
    ("COc1cc(/C=C2/SC(c3ccccc3)N(c3ccccc3)C2=O)cc(OC)c1OC (stereo unspecified)", "29.5 µM (inactive)"),
    ("CCc1cc(=O)n(/C(C)=C/c2ccccc2)n1C", "> 100 µM (inactive)"),
    ("O=C(NN1C(=O)C(Cl)C1c1c(O)ccc2ccccc12)c1ccccc1O (stereo unspecified)", "> 100 µM (inactive)"),
    ("CCCCCCCC(=O)NC(C)(C)C(=O)NC(COC(C)(C)C)C(=O)NC(CC(C)C)C(=O)NC(C)(C)C(=O)NC(COC(C)(C)C)C(=O)NC(COC(C)(C)C)C(=O)NC(CC(C)C)C(=O)NC(C)(C)C(=O)NC(COC(C)(C)C)C(=O)NC(C(=O)NC(CC(C)C)C(=O)OC)C(C)CC (stereo unspecified) (Octanoyl-[Aib]S(tBu)L[Aib]S(tBu)S(tBu)L[Aib]S(tBu)IL-OMe; configuration not given here)", "14.6 µM (inactive)"),
    ("C=C1C[C@@H](O)[C@@H](Br)C(C)(C)[C@@]12C=CC(O)(CBr)CC2 (stereo partly specified)", "> 100 µM (inactive)"),
    ("[O-][S+](Cc1ccccc1)c1nc2ccccc2nc1-c1cccs1 (stereo unspecified)", "24.8 µM (inactive)"),
    ("CC/C(=C(\\c1ccccc1)c1ccc(OCC[N+](C)(C)C)cc1)c1ccccc1 [TAMOXIFEN METHYL IODIDE]", "21.1 µM (inactive)"),
    ("CCCOC(=O)C1C2CCC(O2)C1C(=O)O (stereo unspecified)", "> 100 µM (inactive)"),
    ("C=CCSc1ncnc2c1ncn2C1OC(CO)C(O)C1O (stereo unspecified)", "42.1 µM (inactive)"),
]

* * *

test system: TK-10; test: NCI tumour cell line growth inhibition, 48 h
The source made the active and inactive calls. No stated cut-off is given here; in the data, active = GI50 up to about 1.1 µM and inactive = higher.
Possible outcomes: y for active, n for inactive

# compound, category_label
data = [
    ("N#C/N=C1/c2ccccc2/C(=N/C#N)c2cc(CO)ccc21", "n"),
    ("CCN(CC)c1ccc(Cl)c2c1C(O)(C(C)C)C2(C)C (centres undefined)", "n"),
    ("Cc1ccc(S(=O)(=O)n2cc(-c3cnc(N)c(Br)n3)c3ccccc32)cc1", "n"),
    ("O=C(CO)CC(=O)C(=O)Nc1cccc(C(F)(F)F)c1", "n"),
    ("CC(=O)O[C@@H]1C[C@@]2(C)[C@@H]3CC=C4[C@@H](C[C@H](O)C(=O)C4(C)C)[C@]3(C)C(=O)C[C@]2(C)[C@H]1[C@@](C)(O)C(=O)/C=C/C(C)(C)OC(C)=O", "y"),
    ("CN(C)C(=O)OC1C(=O)N(C)c2ccc(Cl)cc2C2(c3ccccc3)N1C2(Cl)Cl (centres undefined)", "n"),
    ("O=C1NCC(CSc2nc3cc(C4CCCc5c4[nH]c4ccccc54)ccc3o2)N1 (centres undefined)", "n"),
    ("COC(=O)C(N)CCCC(N)C(=O)NC(C)C(=O)NC(CCC(=O)NCCCNc1ccc([N+](=O)[O-])c2[nH]c3ccccc3c(=O)c12)C(N)=O (centres undefined)", "n"),
    ("C=CCN1CN(C2CCCCC2)CSC1=S", "n"),
]

* * *

Quick list: GI50 per entry.
system: UACC-257; experiment: NCI tumour cell line growth inhibition, 48 h
The source made the active and inactive calls. No stated cut-off is given here; in the data, active = GI50 up to about 1.1 µM and inactive = higher.
readout_kind: GI50

# molecule, readout_value
measured = [
    ("CC(=O)c1cccn1/C=C(\\OC(=O)OC(C)(C)C)c1ccc[nH]1", "> 100 µM (inactive)"),
    ("C[C@@]12C[C@@H](c3ccccc3O1)N1CCCCSC1=N2", "> 100 µM (inactive)"),
    ("CCOC(=O)c1c(CN2CCOCC2)n(Cc2ccccc2)c2c1cc(O)c1nc(C)c(C)nc12", "> 100 µM (inactive)"),
    ("COC(=O)[C@]12CC[C@H]3CN(C(=O)OCc4ccccc4)[C@H]([C@H]31)[C@H](C(=O)OCC[Si](C)(C)C)N2S(=O)(=O)c1ccc(C)cc1", "20 µM (inactive)"),
    ("CCN(CC)c1ccc(Cl)c2c1C(O)(C(C)C)C2(C)C (stereo not drawn)", "14.5 µM (inactive)"),
    ("CC(C)CCCC(C)[C@H]1CCC2[C@@H]3CCC4Cc5nc6c(nc5C[C@]4(C)C3CC[C@@]21C)CC1CC[C@@H]2C(CC[C@@]3(C)C2CC[C@@H]3C(C)CCCC(C)C)[C@@]1(C)C6 (stereo partly drawn)", "> 100 µM (inactive)"),
    ("CC(C)OC(=O)Nc1c([N+](=O)[O-])cc(C(F)(F)F)cc1[N+](=O)[O-]", "> 100 µM (inactive)"),
    ("O=C1Nc2ccc(S(=O)(=O)O)cc2/C1=N/Nc1ccccc1[N+](=O)[O-]", "> 100 µM (inactive)"),
]

* * *

tested on: Malme-3M; experiment: NCI tumour cell line growth inhibition, 48 h
Active and inactive are the calls of the source. Cut-off read from the data, not from the text of the source: active = GI50 up to about 1.1 µM and inactive = higher. Positions of bridges follow the written chain, without caps; N, C: chain ends. Non-standard residues stand in square brackets, D forms with d. Residues, ends and D or L forms follow the SMILES beside them. *: point of attachment. PhAc = O=C(Cc1ccccc1)*
Possible outcomes: label 1 for active, label 0 for inactive

# compound, category_label
records = [
    ("CC(C)CC1CC2C(=O)N(c3ccccc3)C(=O)C2c2[nH]c3ccccc3c21 (centres undefined)", "label 0"),
    ("CN(C)CCNc1ccc(CO)c2oc3ccc(O)cc3c(=O)c12", "label 0"),
    ("O=c1nc(-c2ccccc2)c2c3c(cccn13)CCC2", "label 0"),
    ("O=C(Cc1ccccc1)N[C@@H]1COC(=O)[C@@H]2CCCN2C(=O)[C@@H]2CCCN2C1=O (PhAc-[dS]-Pro-Pro; ester 1-C)", "label 0"),
    ("CCCCCCCCCCCC1NC(N)=NC(CCCO)=C1C(=O)OC (centres undefined)", "label 0"),
    ("Cc1cc(Cl)nc(Nc2nc3ccccc3[nH]2)n1", "label 0"),
    ("Cc1cc2c(=O)cc(-c3ccc(O)cc3)oc2c(C(=O)O)c1C", "label 0"),
    ("Cc1cc(Oc2cnc(=O)[nH]c2)cs1", "label 0"),
    ("CN(/N=C\\c1ccnc2ccccc12)c1ccc([N+](=O)[O-])cc1", "label 0"),
    ("N#Cc1c(-c2ccc(F)cc2)c(-c2ccc(F)cc2)nn(CCO)c1=O", "label 1"),
    ("NNC(=O)C(O)C(O)C(=O)NN (centres undefined)", "label 0"),
    ("CCOC(=O)N1CCC(N[C@@H]2c3cc4c(cc3[C@@H](c3cc(OC)c(O)c(OC)c3)[C@H]3C(=O)OC[C@@H]32)OCO4)CC1", "label 0"),
    ("C=CC(C)(C)N[C@@H](C(=O)N1CCC[C@H]1c1nc(-c2nc(C(=O)OCC=C(C)C)c(C)o2)c(C)o1)C(C)C", "label 0"),
    ("COc1ccc(C(C2=C(C)C(=O)c3ccccc3C2=O)c2ccc(C(C)C)cc(=O)c2O)cc1 (centres undefined)", "label 0"),
    ("CC(C)C1=C2CCC3(C)C(CCC4C5C6OCC5(CCC6(C)C)CCC43C)C2(C)CC1 (centres undefined)", "label 0"),
    ("COC(=O)[C@H](Cc1ccccc1)NC(=O)[C@H](Cc1ccccc1)NC(=O)[C@@H]1CCCN1C(=O)N[C@H]1C2C=CC(C2)C1C(=O)N1CCC[C@H]1C(=O)N[C@@H](C)C(=O)N[C@H](C(=O)OC)C(C)C (some centres undefined)", "label 0"),
    ("CC1=C(C)Cc2c(O)ccc(O)c2C1", "label 0"),
    ("O=C(CCCC(=O)Nc1ccc(Cl)cc1Cl)CC(=O)c1ccc2ccccc2c1", "label 0"),
    ("Cc1cc(C)c(C(=O)OC(c2ccccc2)C(c2ccccc2)N2CCOCC2)c(C)c1 (centres undefined)", "label 0"),
]

Hey, just so you know, these numbers are from ChEMBL document CHEMBL1201862.
